Target: Inhibitor of nuclear factor kappa-B kinase subunit alpha (Homo sapiens) (UniProt O15111);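 further: mean inhibition of IKKA, from the GSK PKIS data set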
Sequence (whole entry): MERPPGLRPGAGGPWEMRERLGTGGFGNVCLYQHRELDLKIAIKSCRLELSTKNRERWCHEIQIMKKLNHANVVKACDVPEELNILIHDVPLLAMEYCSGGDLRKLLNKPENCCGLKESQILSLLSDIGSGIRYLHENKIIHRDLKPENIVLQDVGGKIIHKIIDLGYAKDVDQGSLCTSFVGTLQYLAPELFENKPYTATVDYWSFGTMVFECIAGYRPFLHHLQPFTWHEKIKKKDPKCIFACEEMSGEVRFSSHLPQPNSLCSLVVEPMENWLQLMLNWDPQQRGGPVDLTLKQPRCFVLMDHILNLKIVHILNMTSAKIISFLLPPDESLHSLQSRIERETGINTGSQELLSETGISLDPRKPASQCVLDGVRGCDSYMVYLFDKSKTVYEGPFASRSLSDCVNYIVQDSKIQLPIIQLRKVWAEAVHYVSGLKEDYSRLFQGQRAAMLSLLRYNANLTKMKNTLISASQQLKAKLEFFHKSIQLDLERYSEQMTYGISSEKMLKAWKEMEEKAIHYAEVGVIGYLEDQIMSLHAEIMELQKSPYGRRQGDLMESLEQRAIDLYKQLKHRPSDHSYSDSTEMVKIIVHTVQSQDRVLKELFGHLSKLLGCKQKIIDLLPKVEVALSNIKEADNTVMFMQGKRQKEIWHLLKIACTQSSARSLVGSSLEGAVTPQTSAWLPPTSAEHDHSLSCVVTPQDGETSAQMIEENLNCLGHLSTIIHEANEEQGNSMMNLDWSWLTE
Details: at 1 µM
Measured inhibition values are reported for all entries that follow.

[
  {
    "smiles_input": "CNC(=O)c1ncccc1Nc1nc(Nc2cc3c(cc2OC)CCCN3C(=O)CN(C)C)nc2[nH]ccc12",
    "inhibition / %": 7.49
  },
  {
    "smiles_input": "c1ccc(-c2n[nH]cc2-c2ccnc(-c3ccc(OCCn4ccnc4)cc3)c2)nc1",
    "inhibition / %": 3.64
  },
  {
    "smiles_input": "COC(=O)Nc1nc2ccc(Oc3ccc(NC(=O)Nc4cc(C(F)(F)F)ccc4F)cc3)cc2s1",
    "inhibition / %": -0.96
  },
  {
    "smiles_input": "COc1cc(Nc2ncc(-c3ccccc3)o2)cc(OC)c1",
    "inhibition / %": 4.19
  },
  {
    "smiles_input": "NS(=O)(=O)c1ccc(N/N=C2\\C(=O)Nc3cccc(CCc4ccncc4)c32)cc1",
    "inhibition / %": 1.3
  },
  {
    "smiles_input": "CC(C)c1ccc(-c2cc(-c3c[nH]nc3-c3ccccn3)ccn2)cc1",
    "inhibition / %": -4.49
  }
]

---

target: Mitogen-activated protein kinase 1 (Homo sapiens) (UniProt P28482); conditions: at 0.1 µM;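 further: reported figure is an averaged percent inhibition of the kinase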
Sequence (P28482 whole entry): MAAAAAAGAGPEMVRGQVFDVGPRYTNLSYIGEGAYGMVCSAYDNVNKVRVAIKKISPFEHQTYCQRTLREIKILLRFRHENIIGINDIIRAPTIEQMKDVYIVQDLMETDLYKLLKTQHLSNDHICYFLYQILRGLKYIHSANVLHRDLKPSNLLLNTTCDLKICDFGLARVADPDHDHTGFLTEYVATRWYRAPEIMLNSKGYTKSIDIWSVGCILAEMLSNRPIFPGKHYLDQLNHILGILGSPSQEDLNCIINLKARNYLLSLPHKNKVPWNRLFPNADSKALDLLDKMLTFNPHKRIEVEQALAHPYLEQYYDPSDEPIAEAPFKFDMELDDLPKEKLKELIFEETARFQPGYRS

[
  {
    "smiles_input": "COc1cc(N2CCN(C(C)C)CC2)ccc1Nc1nc(Nc2cccc(F)c2C(=O)O)c2cc[nH]c2n1",
    "inhibition": "5.18%"
  },
  {
    "smiles_input": "Cc1cc(O)cc(C)c1/C=C/c1cncc(C(=O)OC(C)(C)C)c1",
    "inhibition": "2.41%"
  },
  {
    "smiles_input": "COc1cc2c(cc1Nc1nc(Nc3cccc(F)c3C(N)=O)c3cc[nH]c3n1)N(C(=O)CN1CCN(C(C)C)CC1)CC2",
    "inhibition": "2.66%"
  }
]
